# procedure.details: chemical genetic growth profiling, strain panel (AID 1159580);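 further: tested at 20 µM; growth read once vehicle control cultures reached saturation at 30 °C; 1 = growth at the plate median or of vehicle wells; lower values mean less growth of the strain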
# run.conditions: S. cerevisiae deletion strains, growth OD, locus YDL214C, strain PRR2, hits give low values
Among all 5,500 compounds or so, about 2,000 (36%) were called active. Roughly 18% stayed inconclusive and do not appear here. The list shows a part of the results.
So I've got a bunch of compounds here, and I need their normalized growth values.
The answer should be written as a number, with no unit following it.

Answer with the recorded normalized growth of `O=[N+]([O-])/C=C/c1ccsc1` only.
0.0917

Answer with the recorded normalized growth of `Cc1cc(Br)ccc1-n1c(Sc2c([N+](=O)[O-])cc(C(F)(F)F)cc2[N+](=O)[O-])nc2ccccc2c1=O` only.
0.892

Answer with the recorded normalized growth of `CC(C)c1ccc(N2C=Nc3ccc(C(C)C)cc3C2)cc1` only.
0.971

Answer with the recorded normalized growth of `O=C(NC(=S)Nc1cccc(C(F)(F)F)c1)c1ccc2nonc2c1` only.
0.973

Answer with the recorded normalized growth of `O=C(NCCSCc1ccco1)Nc1cc(Cl)cc(Cl)c1` only.
0.894

Answer with the recorded normalized growth of `O=C(Nc1ccc(C(F)(F)F)cc1)N1CCN(c2ccnc3cc(Cl)ccc23)CC1` only.
1.01

Answer with the recorded normalized growth of `CCCc1c(C(=O)Sc2ccccn2)cnn1-c1ccc(Cl)cc1` only.
0.861

Answer with the recorded normalized growth of `O=[N+]([O-])c1cc(Br)cnc1Sc1nnc(SCC2CC2)s1` only.
0.458

Answer with the recorded normalized growth of `FC(F)(F)c1cccc(NNC(=S)Nc2ccccc2)c1` only.
0.951

Answer with the recorded normalized growth of `O=C(c1ccccc1)c1cc(Cl)ccc1NC(=S)Nc1ccc(F)cc1` only.
0.968

Answer with the recorded normalized growth of `Cc1c2c(=O)[nH]ncc2c(-c2ccccc2)n1-c1ccc([N+](=O)[O-])cc1` only.
0.953

Answer with the recorded normalized growth of `O=[N+]([O-])/C=C/c1ccc(F)cc1` only.
0.091

Answer with the recorded normalized growth of `O=C(NCCSCc1cccc(C(F)(F)F)c1)Nc1cccc(C(F)(F)F)c1` only.
1.01

Answer with the recorded normalized growth of `FC(F)(F)c1cccc(NC(=S)Nc2ccccc2)c1` only.
0.949

Answer with the recorded normalized growth of `O=C(NC(=O)c1c(F)cccc1Cl)OCc1ccc(Cl)cc1Cl` only.
0.879

Answer with the recorded normalized growth of `CCOc1ccc(/C=C(\C)[N+](=O)[O-])cc1OC` only.
0.471

Answer with the recorded normalized growth of CC(C)c1ccc(NCC(O)CSc2ccccc2)cc1 (stereo not drawn) only.
0.808

Answer with the recorded normalized growth of `N#CC(C#N)=C/C=C(/Sc1ccc(F)c(Cl)c1)c1ccc(Cl)cc1` only.
0.891

Answer with the recorded normalized growth of `Cc1nn(Cc2ccc(C(=O)Sc3ccc(C(F)(F)F)cn3)o2)c(C)c1Br` only.
0.882

Answer with the recorded normalized growth of `O=[N+]([O-])c1ccccc1CS(=O)(=O)c1nc2ccccc2s1` only.
0.884

Answer with the recorded normalized growth of `O=c1c(Cl)c(-n2cccn2)cnn1-c1ccc(Cl)cc1Cl` only.
0.906

Answer with the recorded normalized growth of `C/C(=C\c1ccc2c(c1)OCO2)[N+](=O)[O-]` only.
0.0871

Answer with the recorded normalized growth of `O=C(c1ccc2ccccc2c1)N1CCN(c2ccnc3cc(Cl)ccc23)CC1` only.
0.957

* * *

# procedure.details: chemical genetic growth profiling, strain panel (AID 1159580)
# run.conditions: S. cerevisiae deletion strains, growth OD, locus YLL001W, strain dnm1
In all, about 5,500 compounds went through this assay and about 2,000 (36%) were called active. Not shown: some 18% with an inconclusive outcome. Cut-off read from the data, not from the text of the source: active = normalized growth mostly below about 0.91 (no sharp cut-off); inconclusive = no clear call, values can overlap the other calls; inactive = mostly above about 0.92. The list shows a part of the results.
Returns: one label drawn from active, inactive

Identify the outcome logged in this assay for the compound shown: CCCC1O[C@@H]2CC3C4CCC5=CC(=O)C=CC5(C)C4[C@@H](O)CC3(C)[C@]2(C(=O)CO)O1 (stereo partly drawn)
inactive

Identify the outcome logged in this assay for the compound shown: `CCOC(=O)c1oc2c(OC)c(O)cc(O)c2c(=O)c1-c1cc(OC)c(OC)c(OC)c1`
inactive

Identify the outcome logged in this assay for the compound shown: `O[N+]1=CC=CCC1=S.On1ccccc1=S.[Zn]`
active

Identify the outcome logged in this assay for the compound shown: `COc1cc2c(c(OC)c1OC)-c1ccc(OC)c(=O)cc1[C@@H](NC(C)=O)CC2`
inactive

Identify the outcome logged in this assay for the compound shown: `O=C1C=CC2=C3c4cc(O)c(O)cc4C[C@@]3(O)COC2=C1`
inactive

Identify the outcome logged in this assay for the compound shown: C=CC(C1=CC(=O)C(OC)=CC1=O)c1ccc(O)cc1 (stereo not drawn)
inactive

Identify the outcome logged in this assay for the compound shown: CC1(C)C(C(Cl)Cl)C2(Cl)C(Cl)C(Cl)C1(Cl)C2(Cl)Cl (stereo not drawn)
inactive

Identify the outcome logged in this assay for the compound shown: CC(C)NCC(O)c1ccc2ccccc2c1 (stereo not drawn)
inactive

Identify the outcome logged in this assay for the compound shown: `Nc1ccc(C(=O)NCC(=O)O)cc1`
inactive

Identify the outcome logged in this assay for the compound shown: `CN/C(=C\[N+](=O)[O-])NCCSCc1ccc(CN(C)C)o1`
inactive

Identify the outcome logged in this assay for the compound shown: `C=C[C@@H](C1=CC(=O)C(OC)=C(OC)C1=O)c1ccccc1`
active

Identify the outcome logged in this assay for the compound shown: `CC(=O)Oc1ccc(Cl)c2cccnc12`
active

Identify the outcome logged in this assay for the compound shown: CC(C)(C)NCC(O)c1ccccc1Cl (stereo not drawn)
inactive

* * *

# procedure.details: chemical genetic growth profiling, strain panel (AID 1159580);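 further: tested at 20 µM; growth read once vehicle control cultures reached saturation at 30 °C; 1 = growth at the plate median or of vehicle wells; lower values mean less growth of the strain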
# run.conditions: S. cerevisiae deletion strains, growth OD, locus YMR125W, strain sto1
Hit rate of the full screen: of about 5,500 compounds, about 2,000 (36%) were called active. Another 18% or so got no clear call; they are omitted. No stated cut-off is given here; in the data, active means normalized growth mostly below about 0.91 (no sharp cut-off); inconclusive means no clear call, values can overlap the other calls; inactive means mostly above about 0.92. The list shows a part of the results.
Returns: one label drawn from active, inactive

Identify the outcome logged in this assay for the molecule shown: `NC[C@H](O)c1ccc(O)c(O)c1`
inactive

Identify the outcome logged in this assay for the molecule shown: NC(=NCCC[C@H](N)C(=O)O)NC(CCC(=O)O)C(=O)O (stereo not given in full)
inactive

Identify the outcome logged in this assay for the molecule shown: `CNC[C@@H](O)c1ccc(O)c(O)c1`
inactive

Identify the outcome logged in this assay for the molecule shown: CC(=O)O[C@H]1C[C@@H](OC(C)=O)C(C)(C)C2C[C@@H](OC(C)=O)[C@@]3(C)C4=CC(=O)O[C@@H](c5ccoc5)[C@]4(C)CCC3[C@]21C (stereo not given in full)
inactive

Identify the outcome logged in this assay for the molecule shown: `CC/C(=C(\c1ccccc1)c1ccc(OCCN(C)C)cc1)c1ccccc1`
active

* * *

So I've got a bunch of compounds here, and I need their normalized growth values.
# procedure.details: chemical genetic growth profiling, strain panel (AID 1159580);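 further: tested at 20 µM; growth read once vehicle control cultures reached saturation at 30 °C; 1 = growth at the plate median or of vehicle wells; lower values mean less growth of the strain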
# run.conditions: S. cerevisiae deletion strains, growth OD, locus YHR027C, strain rpn1, hits give low values
Screen size: about 5,500 compounds; about 2,000 (36%) were called active. About 18% were inconclusive and are not listed. This is one part of the list.

Answer with the recorded normalized growth of `Nc1ccc(S(=O)(=O)Nc2ccccn2)cc1` only.
1.01 (inactive)

Answer with the recorded normalized growth of CC(C)NCC(O)c1ccc(O)c(O)c1 (configuration not stated) only.
0.997 (inactive)

Answer with the recorded normalized growth of CCCC(C)C1(CC)C(=O)N=C(S)NC1=O (configuration not stated) only.
0.996 (inactive)

Answer with the recorded normalized growth of `CC(=O)NCCCS(=O)(=O)O` only.
1.01 (inactive)

Answer with the recorded normalized growth of CCCC(C)C1(CC)C(=O)NC(=O)NC1=O (configuration not stated) only.
1 (inactive)

Answer with the recorded normalized growth of CCCC1O[C@@H]2CC3C4CCC5=CC(=O)C=CC5(C)C4[C@@H](O)CC3(C)[C@]2(C(=O)CO)O1 (some centres not stated) only.
1.01 (inactive)

Answer with the recorded normalized growth of `CC(=O)Oc1ccc(Cl)c2cccnc12` only.
0.0596 (active)

Answer with the recorded normalized growth of COc1ccccc1OCCNCC(O)COc1cccc2[nH]c3ccccc3c12 (configuration not stated) only.
0.994 (inactive)

Answer with the recorded normalized growth of `C=C(CC)C(=O)c1ccc(OCC(=O)O)c(Cl)c1Cl` only.
1.02 (inactive)

Answer with the recorded normalized growth of `CCN(CC)CCNC(=O)c1cc(S(C)(=O)=O)ccc1OC` only.
0.952 (inactive)

Answer with the recorded normalized growth of CC1(C)C(C(Cl)Cl)C2(Cl)C(Cl)C(Cl)C1(Cl)C2(Cl)Cl (configuration not stated) only.
0.977 (inactive)

Answer with the recorded normalized growth of C=CCC1(C(C)CCC)C(=O)N=C(S)NC1=O (configuration not stated) only.
0.977 (inactive)

* * *

# procedure.details: chemical genetic growth profiling, strain panel (AID 1159580);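 further: tested at 20 µM; growth read once vehicle control cultures reached saturation at 30 °C; 1 = growth at the plate median or of vehicle wells; lower values mean less growth of the strain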
# run.conditions: S. cerevisiae deletion strains, growth OD, locus YMR129W
The whole screen tested about 5,500 compounds, of which about 2,000 (36%) were called active. Not shown: some 18% with an inconclusive outcome. Cut-off read from the data, not from the text of the source: active = normalized growth mostly below about 0.91 (no sharp cut-off); inconclusive = no clear call, values can overlap the other calls; inactive = mostly above about 0.92. The list shows a part of the results.
Returns: one label drawn from t for active, f for inactive

Identify the outcome logged in this assay for the compound shown: `O=[N+]([O-])c1cc(O)c(O)c([N+](=O)[O-])c1`
f

Identify the outcome logged in this assay for the compound shown: Nc1ncnc2c1ncn2C1C[C@H](O)[C@@H](CO)O1 (stereo not given in full)
f

Identify the outcome logged in this assay for the compound shown: Nc1ncnc2c1ncn2C1O[C@H](COP(=O)(O)O)[C@@H](O)[C@H]1O (stereo not given in full)
f

Identify the outcome logged in this assay for the compound shown: CC(=O)O[C@@H]1C[C@@]2(C)[C@H](c3ccoc3)C[C@H]3O[C@]32[C@]2(C)C(=O)C(O)=C3C(C)(C)C(=O)C=C[C@]3(C)C12 (stereo not given in full)
f

Identify the outcome logged in this assay for the compound shown: `CN(C)CCOc1ccc(/C(=C(/CCCl)c2ccccc2)c2ccccc2)cc1`
t

Identify the outcome logged in this assay for the compound shown: `O=C(O)c1ccccc1Nc1cccc(C(F)(F)F)c1`
t

Identify the outcome logged in this assay for the compound shown: CCCC1O[C@@H]2CC3C4CCC5=CC(=O)C=CC5(C)C4[C@@H](O)CC3(C)[C@]2(C(=O)CO)O1 (stereo not given in full)
f

Identify the outcome logged in this assay for the compound shown: `CC(=O)Nc1cc([As](=O)(O)O)ccc1O`
f

Identify the outcome logged in this assay for the compound shown: `CN/C(=C\[N+](=O)[O-])NCCSCc1ccc(CN(C)C)o1`
f

Identify the outcome logged in this assay for the compound shown: CC(C)NCC(O)c1ccc2ccccc2c1 (stereo not given)
f

Identify the outcome logged in this assay for the compound shown: `C/C=C/c1ccc2c(c1)OCO2`
f

Identify the outcome logged in this assay for the compound shown: `Oc1c(Br)cc(Br)c2cccnc12`
t

Identify the outcome logged in this assay for the compound shown: CC(C)(C)NCC(O)c1ccccc1Cl (stereo not given)
f

Identify the outcome logged in this assay for the compound shown: CN(C)CCOC(C)(c1ccccc1)c1ccccn1 (stereo not given)
f

Identify the outcome logged in this assay for the compound shown: `COc1ccc(C(Cl)=C(c2ccc(OC)cc2)c2ccc(OC)cc2)cc1`
f

Identify the outcome logged in this assay for the compound shown: `O=[N+]([O-])c1ccc(O)c([N+](=O)[O-])c1`
t

Identify the outcome logged in this assay for the compound shown: `Oc1c(Cl)cc(Cl)c2cccnc12`
t

Identify the outcome logged in this assay for the compound shown: `NCCCC[C@H](N[C@@H](CCc1ccccc1)C(=O)O)C(=O)N1CCC[C@H]1C(=O)O`
f

Identify the outcome logged in this assay for the compound shown: `CC(=O)/C(=C\c1ccccc1)CC(=O)O`
f

Identify the outcome logged in this assay for the compound shown: `C[n+]1cccc(C(=O)[O-])c1`
f

Identify the outcome logged in this assay for the compound shown: `COc1cc(C(=O)NCc2ccc(OCCN(C)C)cc2)cc(OC)c1OC`
f

Identify the outcome logged in this assay for the compound shown: CN1C(CC(=O)c2ccccc2)CCCC1CC(O)c1ccccc1 (stereo not given)
f

Identify the outcome logged in this assay for the compound shown: `Oc1c(I)cc(I)c2cccnc12`
t

Identify the outcome logged in this assay for the compound shown: `COc1c2c(cc3c1OCO3)CCN(C)C2`
f

Identify the outcome logged in this assay for the compound shown: `COc1cccc(/C=C/C(=O)O)c1C(C)C`
f

Just for reference, PubChem BioAssay AID1159580 is where these values come from.
